Measured Mean % WT Binding, listed per entry.
biological target: human CD33 variant K52F (human, UniProt P20138 18-364); assay: flow cytometry, IgG on cells expressing the mutant
Sequence (P20138 18-364 K52F limits assumed): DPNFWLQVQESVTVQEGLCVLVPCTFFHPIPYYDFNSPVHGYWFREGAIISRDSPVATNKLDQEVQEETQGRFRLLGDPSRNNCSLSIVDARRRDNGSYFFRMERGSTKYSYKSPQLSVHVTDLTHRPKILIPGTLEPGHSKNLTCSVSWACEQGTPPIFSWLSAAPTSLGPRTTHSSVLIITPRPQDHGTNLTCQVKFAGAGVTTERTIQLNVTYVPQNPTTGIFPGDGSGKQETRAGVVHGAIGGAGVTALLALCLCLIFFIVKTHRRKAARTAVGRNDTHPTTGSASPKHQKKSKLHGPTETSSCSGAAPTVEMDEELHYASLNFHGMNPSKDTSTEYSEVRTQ

Worked examples follow.
{"binder": "Refmab #3 (antibody, human IgG1, V domains shown, Tested in IgG format; human IgG1 Fc silent (PG-LALA)) VH: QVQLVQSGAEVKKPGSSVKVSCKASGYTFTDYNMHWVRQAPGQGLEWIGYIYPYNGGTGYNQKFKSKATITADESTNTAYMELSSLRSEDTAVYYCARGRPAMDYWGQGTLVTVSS VL: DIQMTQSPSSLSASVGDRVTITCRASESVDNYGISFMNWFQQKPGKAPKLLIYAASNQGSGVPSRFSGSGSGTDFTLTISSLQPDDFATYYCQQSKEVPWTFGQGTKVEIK", "Mean % WT Binding": "6 % of WT"}
{"binder": "Refmab #2 (antibody, human IgG1, V domains shown, Tested in IgG format; human IgG1 Fc silent (PG-LALA)) VH: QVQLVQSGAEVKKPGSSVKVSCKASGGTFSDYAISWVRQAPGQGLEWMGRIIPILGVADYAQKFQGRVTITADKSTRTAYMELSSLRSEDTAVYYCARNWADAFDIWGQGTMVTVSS VL: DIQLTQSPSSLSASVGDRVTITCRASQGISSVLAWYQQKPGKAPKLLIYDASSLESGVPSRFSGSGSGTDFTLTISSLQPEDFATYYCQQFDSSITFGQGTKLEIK", "Mean % WT Binding": "3.9 % of WT"}
{"binder": "Refmab #4 (antibody, human IgG1, V domains shown, Tested in IgG format; human IgG1 Fc silent (PG-LALA)) VH: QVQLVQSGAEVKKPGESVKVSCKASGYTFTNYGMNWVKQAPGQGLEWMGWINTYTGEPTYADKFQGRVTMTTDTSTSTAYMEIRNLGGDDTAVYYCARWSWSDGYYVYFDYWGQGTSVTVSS VL: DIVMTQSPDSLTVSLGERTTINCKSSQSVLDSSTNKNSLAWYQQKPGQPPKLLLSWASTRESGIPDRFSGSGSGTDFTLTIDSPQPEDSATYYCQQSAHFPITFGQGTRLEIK", "Mean % WT Binding": "3.5 % of WT"}

Okay, now this binder:
[in] Which Mean % WT Binding is reported for this binder? Refmab #1 (antibody, human IgG1, V domains shown, Tested in IgG format; human IgG1 (Absolute Antibody hP67.6, Cat. No. Ab00283-10.0); also called hP67.6) VH: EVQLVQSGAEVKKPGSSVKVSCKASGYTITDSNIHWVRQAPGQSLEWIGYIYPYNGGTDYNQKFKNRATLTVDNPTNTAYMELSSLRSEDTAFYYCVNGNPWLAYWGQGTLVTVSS VL: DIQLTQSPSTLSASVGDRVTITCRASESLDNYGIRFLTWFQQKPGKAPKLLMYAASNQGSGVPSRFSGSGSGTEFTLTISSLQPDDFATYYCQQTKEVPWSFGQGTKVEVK
[out] 4.5 % of WT
